Data provenance is PubChem BioAssay (NCI).

test system: HS 578T breast; test: NCI-60 one-dose screen, 48 h (100 = growth as untreated, 0 = no growth, -100 = all killed); conditions: 10 µM unless noted
About 83,000 compounds went through this panel and 20% of them were active in at least one assay; those are over-represented in the sample as a whole.
Measured growth, listed per entry.
EXPERIMENTAL_READOUT: growth (%)

>>> observed_result("COc1cc(OC)cc(C2C(C#N)=C(N)Oc3c2ccc2ccc(O)cc32)c1 (stereo not given)")
53.2
>>> observed_result("Clc1nccc2c(-c3csc(-c4c[nH]c5ccccc45)n3)c[nH]c12")
45.2
>>> observed_result("CC1(C)CCC(S(=O)(=O)c2ccc3c(c2)/C(=N\\O)c2cc(S(=O)(=O)N4CCN(c5ccc(F)cc5O)CC4)ccc2-3)CC1")
-54.1
>>> observed_result("CCCCCCNc1nc(NCCCCCC)c2[nH]c(NCCCCCC)nc2n1")
55.7
>>> observed_result("CCCCn1sc(=O)n(Cc2ccc(CNC(=O)OCc3ccc4c(Br)cc(Br)c(O)c4n3)cc2)c1=O")
18.6

* * *

Tested on: SR leukemia
Assay: NCI-60 one-dose screen, 48 h
Settings: 10 µM unless noted
Description: Growth inhibition of the SR human tumor cell line is measured as a screen for anti-cancer activity. Cells are grown in 96 well plates and exposed to the test compound for 48 hours. Compounds are tested at a single concentration, which is 10^-5 M for most compounds. The reported endpoint is percent growth (GI% or GIPRCNT), where numbers from 0 - 100% represent growth inhibition, and numbers from -100% - 0 represent cell death. For example, a value of 40 represents 60% growth inhibition. […]
About 83,000 compounds went through this panel and 20% of them were active in at least one assay; those are over-represented in the sample as a whole. Activity calls are given as the source filed them. Rule for the calls: active = growth percent below 10; inactive = the rest.
Labels: t for active, f for inactive

>>> label_class("CN1CCN(CCCOc2ccc3ncnc(Nc4ccc(Oc5cccc(F)c5)c(Cl)c4)c3c2)CC1")
"t"
>>> label_class("Cn1cc(/C=C2/C(=O)Nc3ccccc32)c2ccccc21")
"f"
>>> label_class("O=C1OCC2=C1C(c1cccc(F)c1)c1cc3c(cc1N2CCO)OCO3 (stereo not given)")
"f"
>>> label_class("Cc1ccc(S(=O)(=O)n2cc(C3C(Cl)C(=O)N3c3ccc(N4CCOCC4=O)cc3)c3ccccc32)cc1 (stereo not given)")
"f"
>>> label_class("CCOC(=O)c1ccc2c(c1)c1c(C)c3ccncc3c(C)c1n2C")
"f"

* * *

system: MOLT-4 leukemia; assay: NCI-60 one-dose screen, 48 h (100 = growth as untreated, 0 = no growth, -100 = all killed); conditions: 10 µM unless noted
This is part of a sample that, as a whole, favours compounds with a hit. Of some 83,000 tested, about 20% had one in any assay.
EXPERIMENTAL_READOUT: growth (%)

>>> observed_result("C=CCn1c(SCC(=O)Nc2ccc(C(=O)/C=C/c3cc(OC)c(OC)c(OC)c3)cc2)nnc1-c1cc(-c2ccc(OC)cc2)nc2ccccc12")
66.4
>>> observed_result("N#Cc1c(-c2ccccc2)nc2c(c(-c3ccccc3)nn2-c2ccccc2)c1-c1ccc(N2CCOCC2)cc1")
62.7
>>> observed_result("CCCCCCC(=O)Nc1ncc(Cc2ccc(C)cc2)s1")
35.2
>>> observed_result("CC(/C=C1\\SC(=S)N(CC(=O)NC(Cc2c[nH]c3ccccc23)C(=O)O)C1=O)=C\\c1ccccc1 (configuration not stated)")
104
>>> observed_result("Cc1ccc2[nH]c(=O)c3c(c2c1)OC(N)=C(C#N)C31C(=O)c2cccc3cccc1c23 (configuration not stated)")
88.1
>>> observed_result("COc1cc2cc(NCc3ccc(OC(F)F)cc3)nc(C)c2cc1OC")
63.3
>>> observed_result("Cn1c(=O)c2c(c3ccccc31)OC(N)=C(C#N)C21C(=O)c2ccccc2C1=O")
112
>>> observed_result("COc1cc(C(=O)c2c(-c3ccccc3)oc3c(OC)cccc23)cc(OC)c1O")
18.7
>>> observed_result("CCN(CC)CCOc1nc2c3ccc(Cl)cc3nn2c2ccccc12")
10.9
>>> observed_result("COC(=O)/C(CCC=C(C)C)=C1\\[C@@H](OC(C)=O)C[C@@]2(C)[C@H]1CC(=O)[C@H]1[C@@]3(C)CCC(N4CCCC4)[C@@H](C)[C@@H]3CC[C@@]12C (some centres not stated)")
9.72
>>> observed_result("O=C(N=Nc1c(O)[nH]c2ccccc12)Nc1ccc(Cl)cc1")
87.3
>>> observed_result("C[C@@H]1O[C@@H](O[C@@H]2C[C@H](c3ccc4c(c3O)C(=O)C3=C(C4=O)[C@@]4(O)C(=O)C[C@](C)(O)C[C@@]4(O)C=C3)O[C@H](C)[C@H]2O)C[C@H](O)[C@@H]1O")
91.5
>>> observed_result("COc1ccc(Cn2cc(C(=O)N=Nc3c(O)[nH]c4c(Cl)cccc34)nn2)cc1")
84.8
>>> observed_result("CCn1cc(CNc2ccc(C(=O)Nc3cc4cc(OC)c(OC)cc4c(C)n3)cc2)c(C)n1")
9.9
>>> observed_result("CCOC(=O)C1=C(c2ccccc2)N=c2s/c(=C/c3ccc(Br)cc3)c(=O)n2C1c1ccc(O)cc1 (configuration not stated)")
68
>>> observed_result("CCOC(=O)C1=C(C)N=C2SC=C(c3ccccc3)N2[C@H]1c1cn[nH]c1-c1ccc(Cl)cc1")
-7.33
>>> observed_result("CC12CCC(/C(=C/NNc3ccc([N+](=O)[O-])cc3[N+](=O)[O-])C1=O)C2(C)C (configuration not stated)")
41.3
